- Target Or Test System: Sodium- and chloride-dependent GABA transporter 2 (Homo sapiens, UniProt Q9NSD5)
- Sequence (Q9NSD5 whole entry): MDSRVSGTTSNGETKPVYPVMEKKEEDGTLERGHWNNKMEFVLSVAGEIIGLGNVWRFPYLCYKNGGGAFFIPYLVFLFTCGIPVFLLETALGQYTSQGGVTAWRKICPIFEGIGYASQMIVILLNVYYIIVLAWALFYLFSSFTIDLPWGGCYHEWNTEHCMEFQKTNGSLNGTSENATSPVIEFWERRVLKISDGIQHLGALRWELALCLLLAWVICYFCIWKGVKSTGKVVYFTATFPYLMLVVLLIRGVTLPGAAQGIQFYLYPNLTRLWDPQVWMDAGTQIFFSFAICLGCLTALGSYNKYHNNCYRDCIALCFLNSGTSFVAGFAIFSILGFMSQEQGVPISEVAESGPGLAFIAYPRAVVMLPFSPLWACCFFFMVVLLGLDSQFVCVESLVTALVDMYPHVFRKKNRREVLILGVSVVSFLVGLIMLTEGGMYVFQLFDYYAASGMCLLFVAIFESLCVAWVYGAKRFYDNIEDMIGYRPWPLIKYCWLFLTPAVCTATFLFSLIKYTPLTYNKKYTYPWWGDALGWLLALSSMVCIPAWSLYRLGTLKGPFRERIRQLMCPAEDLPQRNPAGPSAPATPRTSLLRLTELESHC
- Assay Overview: Inhibition of human GAT2 expressed in Flp-In CHO cells assessed as reduction in [3H]GABA uptake incubated for 3 mins by liquid scintillation counting method
Measured Quantity: log10(IC50) (log10 of the value in µM)

>>> measured_value("O=C(O)CC1CNC=N1 (configuration not stated)")
0.46
>>> measured_value("NC1=NC(CC(=O)O)CS1 (configuration not stated)")
1.90
>>> measured_value("NC1=NC(CC(=O)O)CN1 (configuration not stated)")
2.12
>>> measured_value("O=C(O)C[C@H]1CCNC1")
0.86
>>> measured_value("NCCCC(=O)O")
1.41
>>> measured_value("O=C(O)C[C@@H]1CCNC1")
1.20

###

- Target Or Test System: Gamma-aminobutyric acid receptor subunit alpha-5/beta-2/gamma-2 (Homo sapiens) (UniProt P47870+P18507+P31644)
- Assay Overview: Agonist activity at recombinant human GABA-A alpha5beta2gamma2S receptor transiently expressed in human tsA201 cells assessed as GABA-induced maximum response incubated for 30 mins and measured up to 90 secs by FMP dye based FLIPR membrane potential blue assay relative to GABA
- Format: cell-based
Reported Rmax values for the following compounds.
Measured Quantity: Rmax (%)

>>> measured_value("Nc1nc(CC(=O)O)cs1")
85
>>> measured_value("NC1=NC(CC(=O)O)CS1 (stereo not drawn)")
98
>>> measured_value("NC1=N[C@H](CC(=O)O)CS1")
104

###

- Target Or Test System: Sodium- and chloride-dependent GABA transporter 3 (Homo sapiens)
- Sequence (P48066 whole entry): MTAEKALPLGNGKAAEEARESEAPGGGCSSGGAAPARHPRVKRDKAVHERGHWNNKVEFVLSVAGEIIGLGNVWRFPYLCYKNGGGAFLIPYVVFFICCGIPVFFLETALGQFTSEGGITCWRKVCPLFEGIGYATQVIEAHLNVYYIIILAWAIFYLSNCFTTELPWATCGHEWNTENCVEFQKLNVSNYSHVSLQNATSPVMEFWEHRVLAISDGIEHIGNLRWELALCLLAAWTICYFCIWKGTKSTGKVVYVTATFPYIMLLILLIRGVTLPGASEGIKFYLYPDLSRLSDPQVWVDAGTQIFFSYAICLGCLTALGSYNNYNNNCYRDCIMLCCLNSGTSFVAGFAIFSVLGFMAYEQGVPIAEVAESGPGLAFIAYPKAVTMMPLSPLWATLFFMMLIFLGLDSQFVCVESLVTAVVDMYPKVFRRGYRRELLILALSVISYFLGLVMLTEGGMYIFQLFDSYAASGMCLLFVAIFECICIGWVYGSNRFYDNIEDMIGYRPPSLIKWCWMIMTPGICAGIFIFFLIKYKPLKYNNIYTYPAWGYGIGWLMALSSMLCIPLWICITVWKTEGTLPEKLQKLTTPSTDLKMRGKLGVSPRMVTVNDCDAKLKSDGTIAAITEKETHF
- Assay Overview: Inhibition of human GAT3 expressed in Flp-In CHO cells assessed as reduction in [3H]GABA uptake incubated for 3 mins by liquid scintillation counting method
- Format: cell-based
- Condition Notes: read-out: IC50
Measured Quantity: log10 IC50 (log10 of the value in µM)

>>> measured_value("O=C(O)C[C@H]1CCNC1")
0.36
>>> measured_value("O=C(O)C[C@@H]1CCNC1")
0.43
>>> measured_value("O=C(O)CC1CNC=N1 (configuration not stated)")
0.28
>>> measured_value("NCCCC(=O)O")
1.04
>>> measured_value("NC1=NC(CC(=O)O)CN1 (configuration not stated)")
1.64
>>> measured_value("NC1=NC(CC(=O)O)CS1 (configuration not stated)")
2.18
